- assay info: in vivo
- measurement context: male, BALB/c nu/nu, mouse, iv, 500 pmol, total radioactivity, SUV muscle
Non-standard residues stand in square brackets, D forms with d. Residues, ends and D or L forms follow the SMILES beside them. *: point of attachment. DOTA = O=C(O)CN1CCN(CC(=O)O)CCN(CC(=O)*)CCN(CC(=O)O)CC1; EuK = O=C(O)CC[C@H](NC(=O)N[C@@H](CCCCN*)C(=O)O)C(=O)O; 2Nal = N[C@@H](Cc1ccc2ccccc2c1)C(=O)O; Trx = NC[C@H]1CC[C@H](C(=O)O)CC1
Decision: SUV at 2 h beneath 0.1 SUV gives satisfied; SUV at 2 h meeting or exceeding 0.1 SUV gives not satisfied.

Study these solved cases before continuing.
compound="O=C(O)CC[C@H](NC(=O)N[C@@H](CCCCNC(=O)[C@H](Cc1ccc2ccccc2c1)NC(=O)[C@H](CCC(=O)O)NC(=O)[C@H](CCC(=O)O)NC(=O)[C@H](CCC(=O)O)NC(=O)[C@H]1CC[C@H](CNC(=O)CN2CCN(CC(=O)O)CCN(CC(=O)O)CCN(CC(=O)O)CC2)CC1)C(=O)O)C(=O)O [PS7, EuK-NaI-E3-ChX-DOTA] ({DOTA-Trx}-EEE[2Nal]-EuK)" category="not satisfied"
compound="O=C(O)CC[C@H](NC(=O)N[C@@H](CCCCNC(=O)[C@H](Cc1c[nH]cn1)NC(=O)[C@H](CCC(=O)O)NC(=O)[C@H](Cc1c[nH]cn1)NC(=O)[C@H](CCC(=O)O)NC(=O)[C@H](Cc1c[nH]cn1)NC(=O)[C@H](CCC(=O)O)NC(=O)[C@H](Cc1ccc2ccccc2c1)NC(=O)[C@H]1CC[C@H](CNC(=O)CN2CCN(CC(=O)O)CCN(CC(=O)O)CCN(CC(=O)O)CC2)CC1)C(=O)O)C(=O)O [PS1, EuK-(HE)3-NaI-ChX-DOTA] ({DOTA-Trx}-[2Nal]EHEHEH-EuK)" category=satisfied
compound="O=C(O)CC[C@H](NC(=O)N[C@@H](CCCCNC(=O)[C@H](Cc1ccc2ccccc2c1)NC(=O)[C@H]1CC[C@H](CNC(=O)[C@H](CCC(=O)O)NC(=O)[C@H](CCC(=O)O)NC(=O)[C@H](CCC(=O)O)NC(=O)CN2CCN(CC(=O)O)CCN(CC(=O)O)CCN(CC(=O)O)CC2)CC1)C(=O)O)C(=O)O [PS8, EuK-NaI-ChX-E3-DOTA] ({DOTA}-EEE[Trx][2Nal]-EuK)" category="not satisfied"
compound="O=C(O)CC[C@H](NC(=O)N[C@@H](CCCCNC(=O)[C@H](Cc1ccc2ccccc2c1)NC(=O)[C@H](Cc1c[nH]cn1)NC(=O)[C@H](CCC(=O)O)NC(=O)[C@H](Cc1c[nH]cn1)NC(=O)[C@H](CCC(=O)O)NC(=O)[C@H](Cc1c[nH]cn1)NC(=O)[C@H](CCC(=O)O)NC(=O)[C@H]1CC[C@H](CNC(=O)CN2CCN(CC(=O)O)CCN(CC(=O)O)CCN(CC(=O)O)CC2)CC1)C(=O)O)C(=O)O [PS2, EuK-NaI-(HE)3-ChX-DOTA] ({DOTA-Trx}-EHEHEH[2Nal]-EuK)" category="not satisfied"
compound="O=C(O)CC[C@H](NC(=O)N[C@@H](CCCCNC(=O)[C@H](CCC(=O)O)NC(=O)[C@H](CCC(=O)O)NC(=O)[C@H](CCC(=O)O)NC(=O)[C@H](Cc1ccc2ccccc2c1)NC(=O)[C@H]1CC[C@H](CNC(=O)CN2CCN(CC(=O)O)CCN(CC(=O)O)CCN(CC(=O)O)CC2)CC1)C(=O)O)C(=O)O [PS6, EuK-E3-NaI-ChX-DOTA] ({DOTA-Trx}-[2Nal]EEE-EuK)" category="not satisfied"

Query string: Please indicate whether the reported SUV at 2 h of O=C(O)CC[C@H](NC(=O)N[C@@H](CCCCNC(=O)[C@H](Cc1ccc2ccccc2c1)NC(=O)[C@H]1CC[C@H](CNC(=O)[C@H](Cc2c[nH]cn2)NC(=O)[C@H](CCC(=O)O)NC(=O)[C@H](Cc2c[nH]cn2)NC(=O)[C@H](CCC(=O)O)NC(=O)[C@H](Cc2c[nH]cn2)NC(=O)[C@H](CCC(=O)O)NC(=O)[C@H](Cc2c[nH]cn2)NC(=O)[C@H](CCC(=O)O)NC(=O)CN2CCN(CC(=O)O)CCN(CC(=O)O)CCN(CC(=O)O)CC2)CC1)C(=O)O)C(=O)O [PS5, EuK-NaI-ChX-(HE)4-DOTA] ({DOTA}-EHEHEHEH[Trx][2Nal]-EuK) is strictly below 0.1 SUV.
Result string: satisfied

Query string: Please indicate whether the reported SUV at 2 h of O=C(O)CC[C@H](NC(=O)N[C@@H](CCCCNC(=O)[C@H](Cc1c[nH]cn1)NC(=O)[C@H](Cc1c[nH]cn1)NC(=O)[C@H](Cc1c[nH]cn1)NC(=O)[C@H](Cc1ccc2ccccc2c1)NC(=O)[C@H]1CC[C@H](CNC(=O)CN2CCN(CC(=O)O)CCN(CC(=O)O)CCN(CC(=O)O)CC2)CC1)C(=O)O)C(=O)O [PS9, EuK-H3-NaI-ChX-DOTA] ({DOTA-Trx}-[2Nal]HHH-EuK) is strictly below 0.1 SUV.
Result string: satisfied

Query string: Please indicate whether the reported SUV at 2 h of O=C(O)CC[C@H](NC(=O)N[C@@H](CCCCNC(=O)[C@H](Cc1ccc2ccccc2c1)NC(=O)[C@H](Cc1c[nH]cn1)NC(=O)[C@H](Cc1c[nH]cn1)NC(=O)[C@H](Cc1c[nH]cn1)NC(=O)[C@H]1CC[C@H](CNC(=O)CN2CCN(CC(=O)O)CCN(CC(=O)O)CCN(CC(=O)O)CC2)CC1)C(=O)O)C(=O)O [PS10, EuK-NaI-H3-ChX-DOTA] ({DOTA-Trx}-HHH[2Nal]-EuK) is strictly below 0.1 SUV.
Result string: satisfied
